- procedure_text: Solubility screen: solubility assessment of amorphous Compound 1 in solvents
- Format: physicochemical
- conditions: organic solvent or mixture, thermodynamic from solid; in Ethyl acetate, room temperature
assay_metric: solubility

Exercise: Given the molecule `C[C@H](NC(=O)c1c(N)nn2cccnc12)c1cc2cccc(C#Cc3cnn(C)c3)c2c(=O)n1-c1ccccc1` , what is its reported solubility?
Key: < 17 mg/mL

* * *

- procedure_text: Solubility screen: solubility assessment of amorphous Compound 1 in solvents
- Assay type: physicochemical
- conditions: organic solvent or mixture, thermodynamic from solid; in 2-Methoxyethanol, room temperature
assay_metric: solubility

Exercise: Any idea what its solubility is? The molecule is `C[C@H](NC(=O)c1c(N)nn2cccnc12)c1cc2cccc(C#Cc3cnn(C)c3)c2c(=O)n1-c1ccccc1`
Key: ≥ 333 mg/mL

* * *

- procedure_text: Solubility screen: solubility assessment of amorphous Compound 1 in solvents
- Type: physicochemical
- conditions: organic solvent or mixture, thermodynamic from solid; in Dichloromethane, room temperature
assay_metric: solubility

Exercise: Could you tell me which solubility is on file for `C[C@H](NC(=O)c1c(N)nn2cccnc12)c1cc2cccc(C#Cc3cnn(C)c3)c2c(=O)n1-c1ccccc1` ?
Key: 17 to 20 mg/mL

* * *

- procedure_text: Solubility of Compound 1 in acetonitrile/water during controlled crystallization
- Type: physicochemical
- conditions: aqueous with cosolvent or surfactant or cyclodextrin; 40/60 v/v acetonitrile/water, 22° C.
assay_metric: solubility

Exercise: Find the recorded solubility belonging to `C[C@H](NC(=O)c1c(N)nn2cccnc12)c1cc2cccc(C#Cc3cnn(C)c3)c2c(=O)n1-c1ccccc1` and report it.
Key: ~3000 µg/mL

* * *

- procedure_text: Solubility screen: solubility assessment of amorphous Compound 1 in solvents
- Assay type: physicochemical
- conditions: organic solvent or mixture, thermodynamic from solid; in THF/Water (95/5 v/v), room temperature
assay_metric: solubility

Exercise: # get_value(readout='solubility', item= `C[C@H](NC(=O)c1c(N)nn2cccnc12)c1cc2cccc(C#Cc3cnn(C)c3)c2c(=O)n1-c1ccccc1` )
Key: < 17 mg/mL

* * *

- procedure_text: Solubility screen: solubility assessment of amorphous Compound 1 in solvents
- Type: physicochemical
- conditions: organic solvent or mixture, thermodynamic from solid; in IPA/Water (95/5 v/v), room temperature
assay_metric: solubility

Exercise: Entry `C[C@H](NC(=O)c1c(N)nn2cccnc12)c1cc2cccc(C#Cc3cnn(C)c3)c2c(=O)n1-c1ccccc1` : reported solubility = ?
Key: < 17 mg/mL

* * *

- procedure_text: Solubility screen: solubility assessment of amorphous Compound 1 in solvents
- Type: physicochemical
- conditions: organic solvent or mixture, thermodynamic from solid; in 2-Methyl-1-propanol, room temperature
assay_metric: solubility

Exercise: # get_value(readout='solubility', item= `C[C@H](NC(=O)c1c(N)nn2cccnc12)c1cc2cccc(C#Cc3cnn(C)c3)c2c(=O)n1-c1ccccc1` )
Key: < 17 mg/mL

* * *

- procedure_text: Solubility of Compound 1 in acetonitrile/water during controlled crystallization
- Assay type: physicochemical
- conditions: organic solvent or mixture; 80/20 v/v acetonitrile/water, 22° C.
- Protocol: An appropriate amount of acetonitrile/water were added to bring the solution to 80/20 v/v acetonitrile/water at 20 L/kg of Compound 1. The slurry was agitated and heated to 75° C. until all the Compound 1 was dissolved. The clear solution was polished filtered with a Zapcap filter (0.45 μm). The solution was put back into the reactor and cool down to 65° C. The mixture was held under agitation at 22° C. for 2 hrs after the end of water addition. […]
assay_metric: solubility

Exercise: What value of measured solubility is listed for C[C@H](NC(=O)c1c(N)nn2cccnc12)c1cc2cccc(C#Cc3cnn(C)c3)c2c(=O)n1-c1ccccc1 [Compound 1] ?
Key: ~18 mg/mL

* * *

- procedure_text: Solubility screen: solubility assessment of amorphous Compound 1 in solvents
- Assay type: physicochemical
- conditions: organic solvent or mixture, thermodynamic from solid; in N,N-Dimethylformamide, room temperature
assay_metric: solubility

Exercise: Entry `C[C@H](NC(=O)c1c(N)nn2cccnc12)c1cc2cccc(C#Cc3cnn(C)c3)c2c(=O)n1-c1ccccc1` : reported solubility = ?
Key: ≥ 333 mg/mL

* * *

- procedure_text: Solubility screen: solubility assessment of amorphous Compound 1 in solvents
- Assay type: physicochemical
- conditions: organic solvent or mixture, thermodynamic from solid; in Nitromethane, room temperature
assay_metric: solubility

Exercise: What value of measured solubility is listed for `C[C@H](NC(=O)c1c(N)nn2cccnc12)c1cc2cccc(C#Cc3cnn(C)c3)c2c(=O)n1-c1ccccc1` ?
Key: 25 to 33 mg/mL

* * *

- procedure_text: Solubility screen: solubility assessment of amorphous Compound 1 in solvents
- Type: physicochemical
- conditions: organic solvent or mixture, thermodynamic from solid; in Isopropyl acetate, room temperature
assay_metric: solubility

Exercise: Quick one: solubility for `C[C@H](NC(=O)c1c(N)nn2cccnc12)c1cc2cccc(C#Cc3cnn(C)c3)c2c(=O)n1-c1ccccc1` ?
Key: < 17 mg/mL

* * *

- procedure_text: Kinetic solubility after 30 min in water and in 0.1M HCl
- Format: physicochemical
- conditions: water, pH 2.9, water, thermodynamic from solid, cocrystal, 30 min, in water, in duplicate, pH 2.9, 3.0; read-out: 30 min Kinetic solubility (pH)
assay_metric: solubility kinetic at 30 min (µg/mL)
Quick reminder: number only, in µg/mL, skip the unit.

Exercise: Fill in: solubility kinetic at 30 min of C[C@H](NC(=O)c1c(N)nn2cccnc12)c1cc2cccc(C#Cc3cnn(C)c3)c2c(=O)n1-c1ccccc1 [Form P1C3] is ___
Key: 40

* * *

- procedure_text: Solubility screen: solubility assessment of amorphous Compound 1 in solvents
- Assay type: physicochemical
- conditions: organic solvent or mixture, thermodynamic from solid; in 1-Propanol, room temperature
assay_metric: solubility

Exercise: What does the data say about its solubility? Entry: `C[C@H](NC(=O)c1c(N)nn2cccnc12)c1cc2cccc(C#Cc3cnn(C)c3)c2c(=O)n1-c1ccccc1`
Key: < 17 mg/mL

* * *

- procedure_text: Solubility screen: solubility assessment of amorphous Compound 1 in solvents
- Format: physicochemical
- conditions: organic solvent or mixture, thermodynamic from solid; in 1,2-Dimethoxyethane, room temperature
assay_metric: solubility

Exercise: Need solubility of `C[C@H](NC(=O)c1c(N)nn2cccnc12)c1cc2cccc(C#Cc3cnn(C)c3)c2c(=O)n1-c1ccccc1` , thanks.
Key: < 17 mg/mL

* * *

- procedure_text: Solubility screen: solubility assessment of amorphous Compound 1 in solvents
- Assay type: physicochemical
- conditions: organic solvent or mixture, thermodynamic from solid; in Acetone, room temperature
assay_metric: solubility

Exercise: Requested read-out: solubility. Entry: `C[C@H](NC(=O)c1c(N)nn2cccnc12)c1cc2cccc(C#Cc3cnn(C)c3)c2c(=O)n1-c1ccccc1`
Key: < 17 mg/mL

* * *

- procedure_text: Solubility screen: solubility assessment of amorphous Compound 1 in solvents
- Type: physicochemical
- conditions: thermodynamic from solid; in Water, room temperature
assay_metric: solubility

Exercise: Name the reported solubility value associated with the molecule C[C@H](NC(=O)c1c(N)nn2cccnc12)c1cc2cccc(C#Cc3cnn(C)c3)c2c(=O)n1-c1ccccc1 [amorphous Compound 1]
Key: < 17 mg/mL

* * *

- procedure_text: Solubility screen: solubility assessment of amorphous Compound 1 in solvents
- Format: physicochemical
- conditions: organic solvent or mixture, thermodynamic from solid; in MEK, room temperature
assay_metric: solubility

Exercise: What value of measured solubility is listed for C[C@H](NC(=O)c1c(N)nn2cccnc12)c1cc2cccc(C#Cc3cnn(C)c3)c2c(=O)n1-c1ccccc1 [amorphous Compound 1] ?
Key: < 17 mg/mL

* * *

- procedure_text: Solubility screen: solubility assessment of amorphous Compound 1 in solvents
- Format: physicochemical
- conditions: organic solvent or mixture, thermodynamic from solid; in 2-Propanol, room temperature
assay_metric: solubility

Exercise: Return reported solubility; argument: `C[C@H](NC(=O)c1c(N)nn2cccnc12)c1cc2cccc(C#Cc3cnn(C)c3)c2c(=O)n1-c1ccccc1`
Key: < 17 mg/mL

* * *

- procedure_text: Solubility screen: solubility assessment of amorphous Compound 1 in solvents
- Assay type: physicochemical
- conditions: organic solvent or mixture, thermodynamic from solid; in Tetrahydrofuran, room temperature
assay_metric: solubility

Exercise: Quick one: solubility of `C[C@H](NC(=O)c1c(N)nn2cccnc12)c1cc2cccc(C#Cc3cnn(C)c3)c2c(=O)n1-c1ccccc1` ?
Key: < 17 mg/mL

* * *

- procedure_text: Solubility screen: solubility assessment of amorphous Compound 1 in solvents
- Format: physicochemical
- conditions: organic solvent or mixture, thermodynamic from solid; in Dimethyl sulfoxide, room temperature
assay_metric: solubility

Exercise: // lookup solubility for `C[C@H](NC(=O)c1c(N)nn2cccnc12)c1cc2cccc(C#Cc3cnn(C)c3)c2c(=O)n1-c1ccccc1`
Key: ≥ 333 mg/mL

* * *

- procedure_text: Kinetic solubility after 30 min in water and in 0.1M HCl
- Type: physicochemical
- conditions: water, pH 7.1, water, thermodynamic from solid, free base, 30 min, in water (footnote *), pH 7.1 and 6.8; read-out: 30 min Kinetic solubility (pH), free base
assay_metric: solubility kinetic at 30 min (µg/mL)
Entry rule: numbers only, all in µg/mL.

Exercise: Entry `C[C@H](NC(=O)c1c(N)nn2cccnc12)c1cc2cccc(C#Cc3cnn(C)c3)c2c(=O)n1-c1ccccc1` : reported solubility kinetic at 30 min = ?
Key: 10
